Where do the numbers come from? From the Human Domainome abundance scans (Beltran et al. 2025).

B1: Zinc finger homeobox protein 3, residues 2147 to 2202; numbered along this chain, Q15911 (parent)
chain: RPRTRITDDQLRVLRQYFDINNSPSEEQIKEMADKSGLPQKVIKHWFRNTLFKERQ

- Variants of: B1
- protocol: abundance fitness (aPCA) (normalised: wild type 0, dead -1); higher = more abundant; growth selection in yeast, the domain comes from the species named
- statedConditions: Homo sapiens
observedProperty: abundance fitness
Response field accepts a number only; no unit should be typed.

Answered examples (5):
Q56A :: 0.09
Q56G :: -0.419
A33E :: 0.038
K44R :: -0.069
L14E :: -0.947

Please report the measured abundance fitness for `P24C` -0.534

Please report the measured abundance fitness for `R48P` -0.461

Please report the measured abundance fitness for `D19F` -0.171

Please report the measured abundance fitness for `R55T` -0.206

Please report the measured abundance fitness for `P24V` -0.413
